# Test system: Leishmania infantum
# Protocol Notes: Antileishmanial activity against Leishmania infantum MHOM/MA/67/ITMAP-263 promastigotes assessed as inhibition of parasite growth incubated for 72 hrs by resazurin dye based assay
# Format: functional, organism-based
# Condition Label: MHOM/MA/67/ITMAP-263, 72 h
y if IC50 is below 1 µM. n if not; exact matches included in n.

CC(C)(C)/[N+]([O-])=C/c1ccc([N+](=O)[O-])s1 ... n

[ask] Lab note: confirm whether the reported IC50 for this compound is below 1 µM, equality not counting. compound: O=[N+]([O-])c1ccc(/C=[N+](\[O-])Cc2ccccc2)s1
[reply] n

[ask] Lab note: confirm whether the reported IC50 for this compound is below 1 µM, equality not counting. compound: C/[N+]([O-])=C\c1ccc([N+](=O)[O-])cc1
[reply] n

[ask] Lab note: confirm whether the reported IC50 for this compound is below 1 µM, equality not counting. compound: C/[N+]([O-])=C/c1ccc([N+](=O)[O-])o1
[reply] y

* * *

Reported values of IC50 for individual entries
# Tested on: Leishmania donovani
# Protocol Notes: Antileishmanial activity against wild type Leishmania donovani promastigotes incubated for 72 hrs by resazurin dye based assay
# Assay type: functional, organism-based
The reply should be a number in µM, with the unit left off.

These recorded examples may help you get a feel for the data.
C/[N+]([O-])=C/c1ccc([N+](=O)[O-])s1 ... 1.12
O=[N+]([O-])c1ccc(/C=[N+](\[O-])Cc2ccccc2)o1 ... 0.99
C/[N+]([O-])=C/c1ccc([N+](=O)[O-])o1 ... 1.16

Proceeding to the next compound to report its IC50.
[ask] Under Leishmania donovani: IC50 value of CC(C)(C)/[N+]([O-])=C/c1ccc([N+](=O)[O-])o1 ?
[reply] 0.87

* * *

Reported values of CC50 at 72 h for individual entries
# Protocol Notes: Cytotoxicity against BALB/c mouse peritoneal macrophages assessed as reduction in cell viability incubated for 72 hrs by resazurin dye based fluorescence assay
# Design: species or system Peritoneal macrophage

These recorded examples may help you get a feel for the data.
C/[N+]([O-])=C\c1ccc([N+](=O)[O-])cc1 ... > 100 µM
C/[N+]([O-])=C/c1ccco1 ... > 100 µM

[ask] If you can, please state the reported CC50 at 72 h value of C/[N+]([O-])=C/c1cccs1 .
[reply] > 100 µM

* * *

# Test system: Leishmania infantum
# Protocol Notes: Antileishmanial activity against Leishmania infantum MHOM/MA/67/ITMAP-263 promastigotes assessed as inhibition of parasite growth incubated for 72 hrs by resazurin dye based assay
# Type: functional, organism-based
# Condition Label: MHOM/MA/67/ITMAP-263, 72 h
Measurement Name: IC50 (µM)
The reply should be a number in µM, with the unit left off.

These recorded examples may help you get a feel for the data.
O=[N+]([O-])c1ccc(/C=[N+](\[O-])Cc2ccccc2)o1 ... 0.22
O=Cc1ccc([N+](=O)[O-])s1 ... 1.39
CCCCCCCCCCCCCCCCOP(=O)([O-])OCC[N+](C)(C)C ... 9.81
CC(C)(C)/[N+]([O-])=C/c1ccc([N+](=O)[O-])o1 ... 0.36

[ask] If you can, please state the reported IC50 value of C/[N+]([O-])=C/c1ccc([N+](=O)[O-])s1 .
[reply] 3.45

[ask] If you can, please state the reported IC50 value of O=Cc1ccc([N+](=O)[O-])o1 .
[reply] 25.7
